System: P. falciparum 3D7 growth, pLDH absorbance
Assay: blood-stage malaria parasite growth potency – strain 3D7, dose response (AID 2305)
Field 'label' (enum: True / False). Set to True when IC50 is strictly under 900 nM; else False.

| Compound | Test target | Cat |
| --- | --- | --- |
| NCCCNc1nc(Nc2cccc(C(N)=O)c2)c2c(=O)[nH]ccc2n1 | P. falciparum 3D7 growth, pLDH absorbance | True |
| CN1CCC(NCc2ccc(-c3ccc(Cl)cc3)cc2)CC1 | P. falciparum 3D7 growth, pLDH absorbance | True |
| CN1CCN(c2ccnc3ccc(NC(=O)Nc4ccc(Br)cc4)cc23)CC1 | P. falciparum 3D7 growth, pLDH absorbance | True |
| Cc1cccc2[nH]c(-c3ccc(-c4ccc(CNCCN5CCNCC5)cc4)s3)nc12 | P. falciparum 3D7 growth, pLDH absorbance | False |
| N#CN1CC[C@@H](NS(=O)(=O)Cc2ccc(Cl)c(Cl)c2)C1 | P. falciparum 3D7 growth, pLDH absorbance | True |
| O=C(Nc1cccc(CN2CCCN(Cc3ccc(F)cc3)CC2)c1)c1ccc(Cl)c(Cl)c1 | P. falciparum 3D7 growth, pLDH absorbance | False |
| CC(C)(C)c1ccc(CNC(=O)c2cc(CNC3CCNCC3)ccc2O)cc1 | P. falciparum 3D7 growth, pLDH absorbance | True |
| COc1ccc(C=NNc2ccnc3cc(F)c(C)cc23)c2ccccc12 | P. falciparum 3D7 growth, pLDH absorbance | True |
| c1cncc(CCNCc2cccc(-c3csc(-c4nc5ccccc5[nH]4)c3)c2)c1 | P. falciparum 3D7 growth, pLDH absorbance | True |
| COc1ccc(OC)c2c1CCN(C)C2Cc1cccc2ccccc12 (centres undefined) | P. falciparum 3D7 growth, pLDH absorbance | False |

Find out if reported IC50 for CCc1c(C)nc2nc(Cc3cccc(F)c3)nn2c1N1CCN(c2ccccn2)CC1 is less than 900 nM
True

Find out if reported IC50 for COc1ccc(C(=O)NCc2ccccc2-c2ccc(C(C)(C)C)cc2)cc1O is less than 900 nM
True

Find out if reported IC50 for COc1ccccc1N1CCN(c2cccc(F)c2C#N)CC1 is less than 900 nM
False

Find out if reported IC50 for O=C(Nc1cccc(N2CCC(NCCCn3ccnc3)CC2)c1)c1cccc(C(F)(F)F)c1 is less than 900 nM
False

Find out if reported IC50 for CN1CCN(CCCN(Cc2ccc(-c3cccc(CNCc4ccc5c(c4)OCO5)c3)cc2)C(=O)Nc2ccccc2)CC1 is less than 900 nM
True

Find out if reported IC50 for CCOC(=O)/C(=N\OC(C(=O)OC(C)(C)C)c1ccccc1)c1csc(NC(c2ccccc2)(c2ccccc2)c2ccccc2)n1 (centres undefined) is less than 900 nM
False

Find out if reported IC50 for CCCNc1nc(NCc2c(C)cccc2C)nc(NC(C)(C)C)n1 is less than 900 nM
True

###

Test system: P. falciparum 3D7 growth, pLDH absorbance
Assay: blood-stage malaria parasite growth potency – strain 3D7, dose response (AID 2305)
Parameter pIC50: see the listing below.
Keep it numeric: pIC50 is minus log10 of the concentration in mol/L.

Below are worked cases with known answers.
| Molecule | pIC50 |
| --- | --- |
| O=C(/C=C/c1ccc(Cl)c(Cl)c1)NCC1CCC(N2CCC(c3c[nH]c4ccccc34)CC2)CC1 (stereo not given) | 6.77 |
| O=C(Nc1nc(-c2ccccn2)cs1)c1ccc(S(=O)(=O)N2CCc3ccccc32)cc1 | 6.08 |
| O=C(Nc1cccc(-c2csc(-c3nc4ccccc4[nH]3)c2)c1)c1ccoc1 | 6.68 |

Returns the measured pIC50 for the input molecule. Input: c1cc(CN2CCCCC2)cc(-c2ccc(-c3nc4ccccc4[nH]3)cc2)c1
6.05

###

Test system: P. falciparum 3D7 growth, pLDH absorbance
Assay: blood-stage malaria parasite growth potency – strain 3D7, dose response (AID 2305)
Observation type: IC50 (nM)
Give the value, in units of nM, as a plain number.

| Molecule | Observation type | Measured |
| --- | --- | --- |
| CC[C@H]1CN(C/C=C/c2ccc(OC)cc2)CC[C@H]1CCCc1ccnc2ccc(O)cc12 | IC50 | 660 |
| O=C(Cc1cccc(O)c1)NCC(Cc1ccc(O)cc1)c1ccccc1 (stereo not given) | IC50 | 640 |
| CN(C)CCCN1CCN(C(=O)c2cc3cc(-c4ccccc4)ccc3n2S(=O)(=O)c2ccccc2)CC1 | IC50 | 120 |

Returns the measured IC50 for the input molecule. Input: Nc1cc(C=Cc2ccc(O)cc2)nc2ccccc12
990

Returns the measured IC50 for the input molecule. Input: CCN1CCC(N(Cc2ccc(-c3ccc(C(F)(F)F)cc3)cc2)C(=O)Cn2c(CCc3cccc(F)c3F)cc(=O)c3ccccc32)C1 (stereo not given)
1010

###

Parameter IC50: see the listing below.
Tested on: P. falciparum 3D7 growth, pLDH absorbance
Assay: blood-stage malaria parasite growth potency – strain 3D7, dose response (AID 2305)
Answer as a quantity: numeral, then unit.

| Compound | Test target | Measured |
| --- | --- | --- |
| CCNc1cc(C(=O)N[C@@H](Cc2ccccc2)[C@H](O)CNCCc2ccccc2)cc(N2CCCC2=O)c1 | P. falciparum 3D7 growth, pLDH absorbance | 840 nM |
| CC(C)Oc1ccc(N2CCN(CCCCNC(=O)c3ccc(NC(=O)c4ccc(Cl)cc4)cc3)CC2)c(OC(C)C)c1 | P. falciparum 3D7 growth, pLDH absorbance | 510 nM |
| COc1ccccc1C1CC(c2ccccc2)=NN1C(=O)c1ccco1 (centres undefined) | P. falciparum 3D7 growth, pLDH absorbance | 400 nM |
| COc1cc(C(=O)N2[C@@H](c3nccs3)[C@@H](C(=O)N(OC)C(C)c3ccccc3)C[C@@]2(CC(C)C)C(=O)OC(C)(C)C)ccc1C(C)(C)C (some centres undefined) | P. falciparum 3D7 growth, pLDH absorbance | 1070 nM |
| CCCCOc1ccc(CNCCCCCCNCc2ccc(OCCCC)c3ccccc23)c2ccccc12 | P. falciparum 3D7 growth, pLDH absorbance | 1130 nM |
| OCC1CCN(Cc2cccc(-c3ccc(-c4nc5ccc(C(F)(F)F)cc5[nH]4)cc3)c2)CC1 | P. falciparum 3D7 growth, pLDH absorbance | 660 nM |
| Cc1ccc2c(c1)nc(N)n2C[C@H](O)c1ccccc1 | P. falciparum 3D7 growth, pLDH absorbance | 580 nM |
| COCCNCc1ncsc1-c1ccc2c(Nc3ccc(Oc4ccccc4)cc3)ccnc2c1 | P. falciparum 3D7 growth, pLDH absorbance | 900 nM |

Tell me reported IC50 for COCCC[C@H]1C(=O)O[C@H]2CCC[C@@H]21 , tested with P. falciparum 3D7 growth, pLDH absorbance.
700 nM

###

Tested on: P. falciparum 3D7 growth, pLDH absorbance
Assay: blood-stage malaria parasite growth potency – strain 3D7, dose response (AID 2305)
Observation type: pIC50
Keep it numeric: pIC50 is minus log10 of the concentration in mol/L.

| Molecule | pIC50 |
| --- | --- |
| COc1ccc(NC(=O)[C@H](Cc2ccccc2)Nc2cc(C)nc(NCCc3ccccc3)n2)cc1 | 5.91 |

Returns the measured pIC50 for the input molecule. Input: CCNc1cc(C(=O)N[C@@H](Cc2ccccc2)[C@H](O)CNC(C)CC(C)C)c(F)c(N2CCCCS2(=O)=O)c1 (some centres undefined)
5.95

Returns the measured pIC50 for the input molecule. Input: Cc1cccc2[nH]c(-c3cccc(-c4cccc(CNCc5cnn(-c6ccccc6)n5)c4)c3)nc12
6.18

Returns the measured pIC50 for the input molecule. Input: Oc1ccc(Cl)cc1CN1CCC(CCOC(c2ccccc2)c2ccccc2)CC1
6.19

Returns the measured pIC50 for the input molecule. Input: CN(C)CCOc1ccnc2ccc(NC(=O)Cc3ccc(-c4ccncc4)c4ccccc34)cc12
6.55

Returns the measured pIC50 for the input molecule. Input: O=C(Nc1cccc(Cl)c1Cl)NC1CCN(Cc2cccc(O)c2)CC1
6.10

Returns the measured pIC50 for the input molecule. Input: CN1CCN(CC(=O)Nc2ccc(-c3ccc(-c4nc5ccccc5[nH]4)cc3)cc2)CC1
6.15

Returns the measured pIC50 for the input molecule. Input: Cc1ccc(O)c(-c2cc(C(=O)Nc3ccc(S(=O)(=O)N4CCCCC4)cc3)[nH]n2)c1
6.09

Returns the measured pIC50 for the input molecule. Input: CC(C)CNCc1ccc(-c2cccc(CN(CCN(C)C)C(=O)CCC3CCCC3)c2)cc1
6.09

###

Parameter log10(IC50): see the listing below.
Test system: P. falciparum 3D7 growth, pLDH absorbance
Assay: blood-stage malaria parasite growth potency – strain 3D7, dose response (AID 2305)
# log10 transformed; quantity=IC50; unit=nM

Below are worked cases with known answers.
| Compound | Observation type | Measured |
| --- | --- | --- |
| Cc1nnsc1C(=O)Nc1ccc(-c2ccc(-c3nc4ccccc4[nH]3)s2)cc1 | log10(IC50) | 2.91 |
| COc1ccc(Br)cc1/C=C/C(=O)Nc1ccc(C2CCCN(C)C2)cc1 (centres undefined) | log10(IC50) | 2.80 |
| O=C(Nc1nc2cc(S(=O)(=O)NCCCN3CCOCC3)ccc2n1CCCn1ccnc1)c1ccc(Cl)cc1 | log10(IC50) | 2.97 |
| O=C(/C=C/c1ccc(Cl)c(Cl)c1)NC1CCC(CN2CCC(c3nc4ccccc4n3CCCO)CC2)CC1 (centres undefined) | log10(IC50) | 2.76 |
| N=C(N)c1ccc(NN=Cc2ccc(Oc3ccc(C(=N)N)cc3)cc2)cc1 | log10(IC50) | 1.95 |
| Cc1onc(-c2ccccc2)c1-c1nc(NC2CCCC(C)C2)no1 (centres undefined) | log10(IC50) | 2.92 |

Returns the measured log10(IC50) for the input compound. Input: CS(=O)(=O)c1cccc(-c2ccc3oc(C(N)=O)c(NC(=O)c4cccs4)c3c2)c1
2.77

Returns the measured log10(IC50) for the input compound. Input: CC(=O)N(Cc1ccc(CC(C)NCCc2cccc(Cl)c2)cc1)Cc1ccc(CC(C)NCCc2cccc(Cl)c2)cc1 (centres undefined)
2.89

Returns the measured log10(IC50) for the input compound. Input: CC1CN=C(c2ccc(NC(=O)c3ccc(C(=O)Nc4ccc(C5=NCC(C)N5)cc4)cc3)cc2)N1 (centres undefined)
1.48

Returns the measured log10(IC50) for the input compound. Input: CS(=O)(=O)NCCCNCc1ccc(-c2ccc(-c3nc4ccc(C(F)(F)F)cc4[nH]3)s2)cc1
2.71

Returns the measured log10(IC50) for the input compound. Input: CC(C)c1ccc(NC(=O)c2ccc(C(=O)NC3CCN(CC4CCCCC4)C3)cc2)cc1 (centres undefined)
2.90
